System: UO-31 renal
assay.notes: NCI tumour cell line growth inhibition, 48 h
parameter.measured: TGI

// solved cases for TGI follow
{"columns": ["compound", "TGI"],
 "data": [
  ["CN(C)[C@@H]1C(=O)C(C(=O)NCNCCCC(=O)O)=C(O)[C@@]2(O)C(=O)C3=C(O)c4c(O)cccc4[C@@](C)(O)[C@H]3C[C@@H]12", "> 100 µM"],
  ["CC1=CC2(O)OC3(CC2=C(C)C)C(C)CCC13 (stereo not given)", "> 100 µM"],
  ["Cc1cc(NC(=O)C(=O)Cc2cnc3ccccc3n2)c(S(=O)(=O)O)cc1Cl", "> 100 µM"],
  ["CC1(C)C=C(/C=N/Nc2ccc(Br)cc2)C(C#N)=C(O)C1(C#N)C#N", "86 µM"],
  ["C=C1C(=O)O[C@H]2[C@H]1[C@H](OC(=O)/C(C)=C\\C)C[C@]1(CO1)[C@@H]1[C@H](OC(C)=O)C=C(C)[C@]21O", "29.4 µM"]
]}

Quick batch: TGI for everything below.
1. COc1cc(OC)c(OC)cc1/C=C1\C=Cc2ccccc21
2. COc1ccc(-n2c3c(c4cc(O)ccc42)C(=O)c2ccccc2C3=O)cc1
3. COc1ccc2c(c1)N(C(C)=O)CN1C(=O)CCC21 (stereo not given)

1: 64.2 µM; 2: > 100 µM; 3: > 100 µM

Quick batch: TGI for everything below.
1. CCN(CC)Cc1ccc2cccnc2c1O
2. CCc1ccc(/C(C)=N/NC(N)=S)cc1

1. > 100 µM
2. > 100 µM
